# system: truncated human PTH-1 receptor hΔNt (human), Q03431
# Sequence (Q03431 other isoform, or with tags, fused parts or gaps mutant, form in doubt): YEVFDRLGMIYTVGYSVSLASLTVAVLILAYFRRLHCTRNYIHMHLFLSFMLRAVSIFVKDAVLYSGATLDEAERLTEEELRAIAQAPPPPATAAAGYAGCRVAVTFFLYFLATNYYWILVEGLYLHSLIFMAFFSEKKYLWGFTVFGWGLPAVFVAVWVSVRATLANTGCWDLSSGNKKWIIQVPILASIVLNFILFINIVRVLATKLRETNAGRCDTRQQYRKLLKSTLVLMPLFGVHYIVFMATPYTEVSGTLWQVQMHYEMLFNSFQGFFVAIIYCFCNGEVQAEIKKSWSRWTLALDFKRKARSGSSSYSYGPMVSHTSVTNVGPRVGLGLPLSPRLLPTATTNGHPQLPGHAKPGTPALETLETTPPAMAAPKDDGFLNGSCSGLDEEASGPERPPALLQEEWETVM
# test.protocol: cell-based or functional assay
Square brackets hold non-standard residues; d marks the D form. Ends that are not written are not given here. Nle = CCCC[C@H](N)C(=O)O
readout.label: cAMP Emax, COS-7 cells, hDeINt (picomole/well)
I only need the number, thanks.

# return recorded cAMP Emax, COS-7 cells, hDeINt (picomole/well) for input AVAEIQLMHARAKH-NH2 [[A3,A10,R11,A12]rPTH(1-14)amide] 250

# return recorded cAMP Emax, COS-7 cells, hDeINt (picomole/well) for input AVSEIQL[Nle]HNLGKHLASVER[Nle]QWLRKKLQDVHNY-NH2 [[Nle^8,21,Tyr^34]-rPTH(1-34)NH2] 243

# return recorded cAMP Emax, COS-7 cells, hDeINt (picomole/well) for input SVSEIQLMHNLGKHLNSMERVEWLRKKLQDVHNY-NH2 [[Tyr^34]human (h)PTH(1-34)NH2] 238

# return recorded cAMP Emax, COS-7 cells, hDeINt (picomole/well) for input AVAEIQLMHAR-NH2 [[A3,A10,R11]rPTH(1-11)] 243

# return recorded cAMP Emax, COS-7 cells, hDeINt (picomole/well) for input AVSEIQLMHNLGKH-NH2 [native rat (r)PTH(1-14)NH2] 222
